System: L1210 leukemia ip in BDF1 mice, survival T/C
Assay Info: NCI In Vivo Anticancer Drug Screen. Data for tumor model L1210 Leukemia (intraperitoneal) in B6D2F1 (BDF1) mice
Protocol Conditions: endpoint: mean survival time; dose: 400.0 mg/kg/injection; schedule: Q01DX001 (ip); vehicle: saline; higher = longer survival
Toxic doses and inconclusive results are not listed.
Value Type: T/C

Study these solved cases before continuing.
Compound	Value Type	Experimental Result
CCOCCOC(=O)c1ccc(C#N)cc1	T/C	97 % of control
Clc1ccnc(NC2CCCCC2)c1	T/C	100 % of control

# query: T/C of entry S=P(c1cccc2ccccc12)(c1cccc2ccccc12)c1cccc2ccccc12
95 % of control

# query: T/C of entry Cc1cc(Cl)nc2ccc(Cc3ccc(Cl)cc3)cc12
93 % of control

# query: T/C of entry COc1ccccc1CN1CCCN(Cc2ccccc2OC)C1c1ccc(N(CCCl)CCCl)cc1C
87 % of control

# query: T/C of entry O=S(=O)(Nc1nccs1)c1ccc(Nc2ccnc3cc(Cl)ccc23)cc1
87 % of control

# query: T/C of entry O=C(O)c1cccc2ccc3ccccc3c12
97 % of control

# query: T/C of entry CCCCCCCC/C=C\CCCCCCCCOCC(O)CO (stereo not given)
86 % of control

# query: T/C of entry CN1CC(=O)N=C1N
92 % of control

# query: T/C of entry [N-]=[N+]=NC(c1ccccc1)C(I)c1ccccc1 (stereo not given)
97 % of control
